Recorded DC50 by entry
Biological target: Cbl-B (Homo sapiens, UniProt Q13191)
Construct: MSD-Based Assay for Degradation of Cbl-B in THP-1 Cells; endogenous in cells; host or cells: THP-1 (title) / Jurkat (protocol text)
Sequence (Q13191 whole entry): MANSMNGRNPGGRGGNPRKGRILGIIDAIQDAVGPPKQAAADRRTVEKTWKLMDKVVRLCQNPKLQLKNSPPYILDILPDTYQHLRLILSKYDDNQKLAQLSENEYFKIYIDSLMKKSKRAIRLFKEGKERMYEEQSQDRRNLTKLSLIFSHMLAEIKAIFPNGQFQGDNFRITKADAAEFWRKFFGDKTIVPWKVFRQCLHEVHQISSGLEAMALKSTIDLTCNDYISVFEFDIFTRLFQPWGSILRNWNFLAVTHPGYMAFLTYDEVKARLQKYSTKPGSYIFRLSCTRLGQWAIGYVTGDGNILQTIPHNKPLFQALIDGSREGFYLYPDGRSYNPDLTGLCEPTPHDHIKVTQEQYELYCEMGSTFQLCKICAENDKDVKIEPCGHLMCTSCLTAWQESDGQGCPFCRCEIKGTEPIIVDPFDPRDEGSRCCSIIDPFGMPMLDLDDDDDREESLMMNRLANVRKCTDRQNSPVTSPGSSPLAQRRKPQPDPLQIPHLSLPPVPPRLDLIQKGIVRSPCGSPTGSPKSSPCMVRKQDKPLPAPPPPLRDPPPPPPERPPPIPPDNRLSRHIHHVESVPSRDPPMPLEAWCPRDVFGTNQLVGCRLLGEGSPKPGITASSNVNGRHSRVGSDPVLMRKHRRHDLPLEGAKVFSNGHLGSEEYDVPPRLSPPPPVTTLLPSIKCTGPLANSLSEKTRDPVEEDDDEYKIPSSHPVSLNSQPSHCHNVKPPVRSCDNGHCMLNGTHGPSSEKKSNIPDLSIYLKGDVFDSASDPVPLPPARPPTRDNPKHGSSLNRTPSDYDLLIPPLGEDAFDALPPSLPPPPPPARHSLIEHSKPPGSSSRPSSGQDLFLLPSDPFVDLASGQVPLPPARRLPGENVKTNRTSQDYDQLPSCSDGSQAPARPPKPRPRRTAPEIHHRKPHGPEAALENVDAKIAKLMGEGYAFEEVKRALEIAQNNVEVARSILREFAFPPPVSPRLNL
Assay: MSD-based assay for degradation of Cbl-B in THP-1 cells
Assay type: cell-based
Conditions: Cbl-B degradation, Jurkat cells seeded (heading: THP-1 cells), 24 hours incubation, MSD readout
Experimental: MSD-Based Assay for Degradation of Cbl-B in THP-1 Cells Assay plates were then shaken at 600 rpm for 5 minutes, followed by incubation for 24 hours in the 37° C. TC incubator. […] Cell debris was then spun down at maximum speed (about 3200 g) for 30 min and lysates frozen in the −80° C. fridge. […] Plates were again washed 3× with 150 ul/well of 1×TBST, followed by addition of 1×MSD reading buffer (MSD, R92TC-2), 150 ul/well, diluted from 4× with water. […]

Take a look at these entries with their results.
Cn1cnnc1CC1(c2cccc(-n3cc4c(C(F)(F)F)cc(-c5nccn5CCOCCN5CCC(CN6CCN(c7ccc8c(c7)CN([C@H]7CCC(=O)NC7=O)C8=O)CC6)CC5)cn4c3=O)c2)COC1 (single isomer, unassigned) :: > 10 µM
CN(C(=O)c1ccc(CN2CCN(c3ccc4c(c3)CN([C@H]3CCC(=O)NC3=O)C4=O)CC2)cc1)C1CCN(Cc2cc(C(F)(F)F)c3cn(-c4cccc(C5(Cc6nncn6C)COC5)c4)c(=O)n3c2)CC1 (single isomer, unassigned) :: < 0.03 µM
Cn1cnnc1CC1(c2cccc(-n3cc4c(C(F)(F)F)cc(CN5CCC(CC(=O)N6CCC(CN7CCN(c8ccc9c(c8)CN([C@H]8CCC(=O)NC8=O)C9=O)CC7)CC6)CC5)cn4c3=O)c2)COC1 :: < 0.03 µM

Okay, now this compound:
Query block: Short answer please: DC50, Cbl-B (Homo sapiens, UniProt Q13191), entry Cn1cnnc1[C@@H](c1cccc(-n2cc3c(C(F)(F)F)cc(CN4CCC[C@H](OC5CCN(C(=O)c6ccc(N7CCN(c8ccc9c(c8)CN([C@H]8CCC(=O)NC8=O)C9=O)CC7)cc6)CC5)C4)cn3c2=O)c1)C1CCC1 (single isomer, unassigned)
Result block: < 0.03 µM

====

biological target: Cbl-B (Homo sapiens, UniProt Q13191); construct: MSD-Based Assay for Degradation of Cbl-B in THP-1 Cells; endogenous in cells; host or cells: THP-1 (title) / Jurkat (protocol text); experiment: MSD-based assay for degradation of Cbl-B in THP-1 cells; format: cell-based; details: Cbl-B degradation, Jurkat cells seeded (heading: THP-1 cells), 24 hours incubation, MSD readout
Here, each record is paired with measured DC50 data.

Query block: Requested read-out: DC50. Entry: Cn1cnnc1[C@@H](c1cccc(-n2cc3c(C(F)(F)F)cc(CN4CCC[C@@H](OCCc5ccc(CN6CCN(c7ccc8c(c7)CN([C@@H]7CCC(=O)NC7=O)C8=O)CC6)cc5)C4)cn3c2=O)c1)C1CCC1 (single isomer, unassigned)
Result block: 0.3 to 1 µM

====

target: Cbl-B (Homo sapiens, UniProt Q13191); construct: MSD-Based Assay for Degradation of Cbl-B in THP-1 Cells; endogenous in cells; host or cells: THP-1 (title) / Jurkat (protocol text); assay: MSD-based assay for degradation of Cbl-B in THP-1 cells; assay type: cell-based; details: Cbl-B degradation, Jurkat cells seeded (heading: THP-1 cells), 24 hours incubation, MSD readout; read-out: Dmax
metric-name: Dmax

Some molecules with recorded Dmax:
Cn1cnnc1[C@@H](c1cccc(-n2cc3c(C(F)(F)F)cc(CN4CCC(COCc5ccc(CN6CCN(c7ccc8c(c7)CN([C@H]7CCC(=O)NC7=O)C8=O)CC6)cc5)CC4)cn3c2=O)c1)C1CCC1 :: > 70%
CO[C@H]1C[C@](c2cccc(-n3cc4c(C(F)(F)F)cc(CN5CCC(OCCOCc6ccc(CN7CCN(c8ccc9c(c8)CN([C@@H]8CCC(=O)NC8=O)C9=O)CC7)cc6)CC5)cn4c3=O)c2)(c2nncn2C)C1 :: 30 to 50%
CO[C@H]1C[C@](c2cccc(-n3cc4c(C(F)(F)F)cc(CN5CCN(CCc6ccc(N7CCN(c8ccc9c(c8)CN([C@@H]8CCC(=O)NC8=O)C9=O)CC7)cc6)CC5)cn4c3=O)c2)(c2nncn2C)C1 :: > 70%

Shift focus to the following entry.
Query block: Any idea what its Dmax is? The molecule is CO[C@H]1C[C@](c2cccc(-n3cc4c(C(F)(F)F)cc(CN5CCN(CCc6ccc(N7CCN(c8ccc9c(c8)CN([C@H]8CCC(=O)NC8=O)C9=O)CC7)cc6)CC5)cn4c3=O)c2)(c2nncn2C)C1
Result block: > 70%

====

target: Cbl-B (Homo sapiens); construct: MSD-Based Assay for Degradation of Cbl-B in THP-1 Cells; endogenous in cells; host or cells: THP-1 (title) / Jurkat (protocol text); assay: MSD-based assay for degradation of Cbl-B in THP-1 cells; format: cell-based; conditions: Cbl-B degradation, Jurkat cells seeded (heading: THP-1 cells), 24 hours incubation, MSD readout; read-out: Dmax
metric-name: Dmax

Query block: Could you tell me which Dmax is on file for Cn1cnnc1[C@@H](c1cccc(-n2cc3c(C(F)(F)F)cc(CN4CCC(OC(=O)N5CCC(CC6CCN(c7ccc8c(c7)CN([C@@H]7CCC(=O)NC7=O)C8=O)CC6)CC5)CC4)cn3c2=O)c1)C1CCC1 (single isomer, unassigned) [Compound 253] ?
Result block: 50 to 70%

Query block: What about this compound? Cn1cnnc1CC1(c2cccc(N3Cc4c(cc(CN5CCC(OCCN6CCC(CN7CCN(c8ccc9c(c8)CN([C@H]8CCC(=O)NC8=O)C9=O)CC7)CC6)CC5)cc4C(F)(F)F)C3=O)c2)COC1 [Compound 76]
Result block: 50 to 70%

Query block: Also Cn1cnnc1[C@@H](c1cccc(-n2cc3c(C(F)(F)F)cc(CN4CCC[C@H](OCCOCc5ccc(COCCNc6cccc7c6C(=O)N(C6CCC(=O)NC6=O)C7=O)cc5)C4)cn3c2=O)c1)C1CCC1 (stereo partly shown) [Compound 17] ?
Result block: 50 to 70%

Query block: Again, but for Cn1cnnc1[C@@H](c1cccc(-n2cc3c(C(F)(F)F)cc(CN4CCC(OCc5ccc(C6CCN(c7ccc8c(c7)CN([C@@H]7CCC(=O)NC7=O)C8=O)CC6)cc5)CC4)cn3c2=O)c1)C1CCC1 (single isomer, unassigned) [Compound 213]
Result block: < 30%

Query block: Same thing, different compound: Cn1cnnc1CC1(c2cccc(-n3cc4c(C(F)(F)F)cc(CN5CCC[C@@H](OCCN6CCC(CN7CCN(c8ccc9c(c8)CN([C@@H]8CCC(=O)NC8=O)C9=O)CC7)CC6)C5)cn4c3=O)c2)COC1 (single isomer, unassigned) [Compound 49]
Result block: 50 to 70%

Query block: // query: Cn1cnnc1CC1(c2cccc(-n3cc4c(C(F)(F)F)cc(CN5CCC(OCc6ccc(C(=O)N7CCN(c8ccc9c(c8)CN([C@H]8CCC(=O)NC8=O)C9=O)CC7)cc6)CC5)cn4c3=O)c2)COC1 (single isomer, unassigned) [Compound 244]
Result block: > 70%

====

Target: Cbl-B (Homo sapiens, UniProt Q13191)
Construct: MSD-Based Assay for Degradation of Cbl-B in THP-1 Cells; endogenous in cells; host or cells: THP-1 (title) / Jurkat (protocol text)
Experiment: MSD-based assay for degradation of Cbl-B in THP-1 cells
Format: cell-based
Conditions: Cbl-B degradation, Jurkat cells seeded (heading: THP-1 cells), 24 hours incubation, MSD readout
Protocol: MSD-Based Assay for Degradation of Cbl-B in THP-1 Cells Assay plates were then shaken at 600 rpm for 5 minutes, followed by incubation for 24 hours in the 37° C. TC incubator. […] Cell debris was then spun down at maximum speed (about 3200 g) for 30 min and lysates frozen in the −80° C. fridge. […] Plates were again washed 3× with 150 ul/well of 1×TBST, followed by addition of 1×MSD reading buffer (MSD, R92TC-2), 150 ul/well, diluted from 4× with water. […]
metric-name: DC50

Some entries whose results are on file:
CO[C@H]1C[C@](c2cccc(-n3cc4c(C(F)(F)F)cc(CN5CCC(OCCOCc6ccc(CN7CCN(c8ccc9c(c8)CN([C@H]8CCC(=O)NC8=O)C9=O)CC7)cc6)CC5)cn4c3=O)c2)(c2nncn2C)C1 [Compound 222] :: < 30 nM
Cn1cnnc1[C@@H](c1cccc(-n2cc3c(C(F)(F)F)cc(CN4CCN(C(=O)Cc5ccc(C6CCN(c7ccc8c(c7)CN([C@H]7CCC(=O)NC7=O)C8=O)CC6)cc5)CC4)cn3c2=O)c1)C1CCC1 (single isomer, unassigned) [Compound 202] :: < 30 nM

Query block: Could you share what DC50 was measured for Cn1cnnc1[C@@H](c1cccc(-n2cc3c(C(F)(F)F)cc(CN4CCC[C@@H](OCCOCc5ccc(COCCNc6cccc7c6C(=O)N(C6CCC(=O)NC6=O)C7=O)cc5)CC4)cn3c2=O)c1)C1CCC1 (some centres unmarked) [Compound 31] , tested on Cbl-B (Homo sapiens, UniProt Q13191)?
Result block: 30 to 300 nM

Query block: Further, for CN(CCN(C)C(=O)c1ccc(C2CCN(c3ccc4c(c3)CN([C@@H]3CCC(=O)NC3=O)C4=O)CC2)cc1)Cc1cc(C(F)(F)F)c2cn(-c3cccc([C@H](c4nncn4C)C4CCC4)c3)c(=O)n2c1 (single isomer, unassigned) [Compound 211] ?
Result block: > 10000 nM

Query block: Consider next the compound Cn1cnnc1[C@@H](c1cccc(-n2cc3c(C(F)(F)F)cc(CN4CCC[C@H](OCCOCc5ccc(COCCNc6cccc7c6C(=O)N(C6CCC(=O)NC6=O)C7=O)cc5)C4)cn3c2=O)c1)C1CCC1 (some centres unmarked) [Compound 17] in the same way.
Result block: 30 to 300 nM

Query block: Would you kindly repeat that for Cn1cnnc1CC1(c2cccc(-n3cc4c(C(F)(F)F)cc(CN5CCC(CC(=O)N6CCC(CC7CCN(c8ccc9c(c8)CN([C@H]8CCC(=O)NC8=O)C9=O)CC7)CC6)CC5)cn4c3=O)c2)COC1 (single isomer, unassigned) [Compound 258] ?
Result block: < 30 nM

Query block: Next entry: CN(CCN(C)C(=O)c1cc(C(F)(F)F)c2cn(-c3cccc([C@H](c4nncn4C)C4CCC4)c3)c(=O)n2c1)C(=O)c1ccc(C2CCN(c3ccc4c(c3)CN([C@H]3CCC(=O)NC3=O)C4=O)CC2)cc1 (single isomer, unassigned) [Compound 198]
Result block: > 10000 nM

Query block: Try this compound too: Cn1cnnc1CC1(c2cccc(-n3cc4c(C(F)(F)F)cc(CN5CCC(OCc6ccc(N7CCN(c8ccc9c(c8)CN([C@H]8CCC(=O)NC8=O)C9=O)CC7)cc6)CC5)cn4c3=O)c2)COC1 (single isomer, unassigned) [Compound 250]
Result block: < 30 nM

Reference for the values: patent US20250340552A1
